Task for the reader: assign each of the following sequences its reported PBM E-score.
molecular target: Ylr278c (UniProt Q05854); experiment: PBM E-score (8-mer binding enrichment) (E-score (-0.5 to 0.5)); higher = stronger / more preferred TF binding; details: protein concentration: 200 nM; construct: GST-DNA-binding domain
Sequence (Q05854 whole entry, the tested form may be a part): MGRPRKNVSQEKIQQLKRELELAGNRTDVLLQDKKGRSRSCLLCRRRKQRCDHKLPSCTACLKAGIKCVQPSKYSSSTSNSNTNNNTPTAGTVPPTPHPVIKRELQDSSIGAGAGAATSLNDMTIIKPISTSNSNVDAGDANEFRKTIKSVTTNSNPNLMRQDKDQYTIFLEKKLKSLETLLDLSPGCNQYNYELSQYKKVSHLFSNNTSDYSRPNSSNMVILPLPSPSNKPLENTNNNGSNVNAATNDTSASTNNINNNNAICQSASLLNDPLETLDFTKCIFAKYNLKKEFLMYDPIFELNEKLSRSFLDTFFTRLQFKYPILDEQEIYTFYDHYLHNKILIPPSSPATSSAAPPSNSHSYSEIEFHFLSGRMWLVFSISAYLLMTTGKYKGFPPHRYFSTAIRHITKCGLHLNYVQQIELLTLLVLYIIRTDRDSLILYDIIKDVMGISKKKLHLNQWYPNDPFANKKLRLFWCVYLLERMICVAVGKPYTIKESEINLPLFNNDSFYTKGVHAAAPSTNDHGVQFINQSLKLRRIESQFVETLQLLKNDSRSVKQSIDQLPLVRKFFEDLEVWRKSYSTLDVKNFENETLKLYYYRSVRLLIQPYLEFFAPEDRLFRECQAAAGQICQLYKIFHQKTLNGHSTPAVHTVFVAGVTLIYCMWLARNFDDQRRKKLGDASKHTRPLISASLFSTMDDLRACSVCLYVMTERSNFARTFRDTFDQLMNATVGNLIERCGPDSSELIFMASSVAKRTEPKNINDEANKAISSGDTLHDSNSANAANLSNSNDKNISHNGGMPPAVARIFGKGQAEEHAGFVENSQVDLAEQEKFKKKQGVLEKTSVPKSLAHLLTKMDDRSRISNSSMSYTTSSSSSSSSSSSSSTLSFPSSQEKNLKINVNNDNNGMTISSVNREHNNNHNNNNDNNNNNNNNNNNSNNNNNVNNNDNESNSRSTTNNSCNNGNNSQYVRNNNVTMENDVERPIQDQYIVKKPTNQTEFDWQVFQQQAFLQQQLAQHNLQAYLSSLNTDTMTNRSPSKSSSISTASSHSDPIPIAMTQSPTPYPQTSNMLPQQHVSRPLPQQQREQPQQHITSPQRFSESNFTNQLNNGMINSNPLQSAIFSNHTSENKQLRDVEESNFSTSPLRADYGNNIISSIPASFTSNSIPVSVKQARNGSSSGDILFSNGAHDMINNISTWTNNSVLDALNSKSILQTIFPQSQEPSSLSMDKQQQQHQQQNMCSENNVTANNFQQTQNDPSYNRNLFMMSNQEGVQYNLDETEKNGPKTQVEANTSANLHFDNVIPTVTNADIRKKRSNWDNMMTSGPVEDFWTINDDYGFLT
In all, about 33,000 sequences were measured (“E-score (-0.5 to 0.5)”: median about -0.054, highest 2% from about 0.39 on). This is one part of a sample in which the highest values are shown more often than they occur.
Reply with the value as a number alone.

Asked: Entry CTACGGAA : reported PBM E-score = ?
Given back: 0.197

Asked: Fill in the blank: the reported PBM E-score of CCCCGTGC is ____.
Given back: 0.295

Asked: Any idea what its PBM E-score is? The sequence is AAGTCGCT
Given back: -0.163

Asked: Requested read-out: PBM E-score. Entry: ACATCGAG
Given back: -0.288

====

target: Ylr278c (UniProt Q05854); test: PBM E-score (8-mer binding enrichment) (E-score (-0.5 to 0.5)); higher = stronger / more preferred TF binding; conditions: protein concentration: 200 nM; construct: GST-DNA-binding domain
The full ranking holds about 33,000 sequences; the median of “E-score (-0.5 to 0.5)” is about -0.054, and the highest 2% start at about 0.39. What follows is part of a selection rich in the highest values, with near analogues and random picks from the rest.
Task for the reader: assign each of the following sequences its reported PBM E-score.

Asked: What value of measured PBM E-score is listed for ATCCCCCG ?
Given back: 0.3

Asked: Need PBM E-score of AGCGGAAC , thanks.
Given back: 0.333

Asked: // returns reported PBM E-score for input CCTCCGAC
Given back: 0.405

Asked: Suppose we examine the sequence TCTACCCA ; what PBM E-score value has been reported?
Given back: -0.14

Asked: I am curious: what PBM E-score value has been reported for CTCTGTTC ?
Given back: -0.0823

Asked: So what's the measured PBM E-score for this one? ATTGGAAG
Given back: -0.0562

Asked: Using the record for CCGGCCGC , report its PBM E-score.
Given back: 0.327

Asked: Recorded PBM E-score for GTCCCGCA , please?
Given back: 0.163

Asked: Can you look up the measured PBM E-score of GGCGGAAC for me?
Given back: 0.349

Asked: State the recorded PBM E-score for this entry: ACCGGAAG
Given back: 0.388

Asked: // PBM E-score lookup, key: AATGAACG
Given back: -0.131

Asked: So what's the measured PBM E-score for this one? CTACACGC
Given back: -0.235

Asked: Need PBM E-score, item GTTCTAGA
Given back: 0.0109

====

Field: PBM E-score. Provide a value for each of the sequences that follow.
target: Ylr278c (UniProt Q05854); experiment: PBM E-score (8-mer binding enrichment) (E-score (-0.5 to 0.5)); higher = stronger / more preferred TF binding; conditions: protein concentration: 200 nM; construct: GST-DNA-binding domain
In all, about 33,000 sequences were measured (“E-score (-0.5 to 0.5)”: median about -0.054, highest 2% from about 0.39 on). The sample as a whole holds a higher share of the highest values than the screen did.
Write the value as a bare number.

Asked: Item under review: CAAACTCC . Reported PBM E-score?
Given back: 0.434

Asked: Any idea what PBM E-score was measured for ACCAGGGC ?
Given back: -0.178

Asked: # lookup: PBM E-score of CAACACTC
Given back: 0.133

Asked: Can you share its PBM E-score? I mean this sequence: CATCTCCA
Given back: 0.0295

Asked: Entry GCTCAGGA has what PBM E-score?
Given back: -0.173

Asked: Bench note: what PBM E-score did AACATAGC show?
Given back: -0.0617

Asked: Return reported PBM E-score; argument: CAATCATG
Given back: -0.214

Asked: Which PBM E-score value is on record for CATCTCCC ?
Given back: 0.216

Asked: Fill blank: measured PBM E-score of the sequence CGAATGTC is ____.
Given back: 0.101

Asked: Look up PBM E-score for this sequence: AAAATTAT
Given back: 0.214

Asked: Returns the measured PBM E-score for the input sequence. Input: GCGGAACC
Given back: 0.254

Asked: Request the reported PBM E-score associated with CATCTAAC
Given back: -0.0951

Asked: Please report the recorded PBM E-score for AACGGAAC .
Given back: 0.322

Asked: What does the data say about its PBM E-score? Entry: GAAACTCA
Given back: -0.0472

Asked: Field request: PBM E-score | item: GAAACTCC
Given back: 0.399

Asked: Consider the sequence AGGAGCCG and give its measured PBM E-score.
Given back: -0.0181

Asked: // PBM E-score lookup, key: CGGAGCCA
Given back: 0.402

Asked: Please look up its PBM E-score: GTGCCTTA
Given back: -0.129

Asked: What value of PBM E-score has been recorded for this entry: CCTCTACA
Given back: -0.252

Asked: Name the reported PBM E-score value associated with the sequence CGGGCGGA
Given back: 0.405

Asked: Suppose we examine the sequence CATCTCCG ; what PBM E-score value has been reported?
Given back: 0.463

Asked: Tell me the measured PBM E-score of TGGTTCAA , please.
Given back: -0.118

Asked: Reported PBM E-score for CCGGAACG : what is it?
Given back: 0.411

Asked: May I ask what PBM E-score has been recorded for ATCAGGAA ?
Given back: -0.0943

Asked: Look up PBM E-score for this sequence: AGCCCTTA
Given back: -0.232

Asked: Entry under review: CTCCGGAA . Reported PBM E-score?
Given back: 0.479

Asked: Dear colleague, I am looking for the recorded PBM E-score of the following sequence: CGGGCGTA
Given back: 0.178

Asked: Return reported PBM E-score; argument: GTGGGAAC
Given back: -0.189

Asked: Query: PBM E-score; subject: AGCGGAAT
Given back: 0.385

Asked: # PBM E-score lookup, item CTCGGAAC
Given back: 0.381

Asked: Which PBM E-score value belongs to CATGAAGG ?
Given back: -0.145

Asked: Bench note: what PBM E-score did AGCTCACC show?
Given back: -0.00625

Asked: Look at this sequence and give its reported PBM E-score. GTTCTTCA
Given back: -0.192

Asked: Look at this sequence and give its reported PBM E-score. CTCAGGAG
Given back: -0.171

Asked: Quick one: PBM E-score of CGAGCGGA ?
Given back: 0.381

Asked: What value of PBM E-score has been recorded for this entry: ATTGGAAC
Given back: -0.0837

Asked: Name the reported PBM E-score value associated with the sequence GGGAGCCA
Given back: -0.264

Asked: May I ask what PBM E-score has been recorded for CCGGAACA ?
Given back: 0.442

Asked: Param item = ATATCCGG ; retrieve measured PBM E-score.
Given back: 0.413

Asked: Which PBM E-score is listed for ATCGGAAC ?
Given back: 0.406

Asked: Which PBM E-score value is on record for CTTCAACC ?
Given back: -0.0749

Asked: Field request: PBM E-score | item: CGAGTACA
Given back: 0.0348

Asked: I would be grateful if you could share the reported PBM E-score for AGGGCGGA .
Given back: 0.385

Asked: Fill blank: measured PBM E-score of the sequence GTCAAGAC is ____.
Given back: -0.133

Asked: Item TCGGAACA has what recorded PBM E-score?
Given back: 0.417

Asked: Quick one: PBM E-score of CTGGTTGC ?
Given back: 0.123

Asked: Requested field: PBM E-score. Item: CGCTTTCC
Given back: 0.143

Asked: Which PBM E-score value is on record for ATGCGGAG ?
Given back: 0.385

Asked: Quick one: PBM E-score for AGATCCGC ?
Given back: 0.37

Asked: State the recorded PBM E-score for this entry: ACGCTCTG
Given back: -0.251

Asked: Entry CAGGAACA : reported PBM E-score = ?
Given back: -0.157

Asked: Please report the recorded PBM E-score for AATCTCCC .
Given back: 0.0563

Asked: Using the record for ACCGGGGG , report its PBM E-score.
Given back: 0.293

Asked: Report PBM E-score for ACATCCGA please.
Given back: 0.356

Asked: Returns the measured PBM E-score for the input sequence. Input: AATTCTCT
Given back: -0.113

Asked: Requested field: PBM E-score. Item: ATGCTAGC
Given back: 0.00697

Asked: Field request: PBM E-score | item: CCGGCGCC
Given back: 0.422

Asked: Look up PBM E-score for this sequence: GGAGCGGA
Given back: 0.396

Asked: Give the measured PBM E-score of ACTACTAG .
Given back: -0.0129

Asked: Could you share which PBM E-score value was measured for TCGGGAAA ?
Given back: 0.35

Asked: Form field: reported PBM E-score of CTCTTGGC
Given back: -0.239

Asked: So what's the measured PBM E-score for this one? ACGGCGCC
Given back: 0.184

Asked: Looking for the measured PBM E-score of AAAACTCC , can you help?
Given back: 0.386

Asked: Look up PBM E-score: GGATCGTA
Given back: -0.00905

Asked: Returns the measured PBM E-score for the input sequence. Input: AGTATCTG
Given back: -0.207
